System: CAPAN-1
Experiment: Antiproliferative activity against human Talazoparib-resistant CAPAN-1 cells assessed as cell proliferation inhibition incubated for 7 days by SRB assay
Format: functional, cell-based
PROPERTY LABEL: pIC50
In simple prose, pIC50 is minus the logarithm base ten of a concentration in moles per litre.

// known answers, use as guide
> print(dat)
                           molecular.string  meas.value
1  O=C(c1cc(Cc2n[nH]c(=O)c3ccccc23)ccc1F)N1CCn2c(nnc2-c2ccc(C3COC3)o2)C1        6.72
2  O=C(c1cc(Cc2n[nH]c(=O)c3ccccc23)ccc1F)N1CCn2c(nnc2-c2ccc(C(F)(F)CO)o2)C1        6.94
3  O=C(c1cc(Cc2n[nH]c(=O)c3ccccc23)ccc1F)N1CCn2c(nnc2-c2ccc(C(F)(F)F)o2)C1        8.22
4  Cc1cccc(-c2nnc3n2CCN(C(=O)c2cc(Cc4n[nH]c(=O)c5ccccc45)ccc2F)C3)n1        7.16
5  NCC(F)(F)c1ccc(-c2nnc3n2CCN(C(=O)c2cc(Cc4n[nH]c(=O)c5ccccc45)ccc2F)C3)o1        6.20

The molecule CNCc1ccc(-c2nnc3n2CCN(C(=O)c2cc(Cc4n[nH]c(=O)c5ccccc45)ccc2F)C3)o1 showed pIC50 equal to 5.34

Per the records, this molecule ( O=C(c1cc(Cc2n[nH]c(=O)c3ccccc23)ccc1F)N1CCn2c(nnc2-c2ccc(C(F)F)o2)C1 ) has pIC50 equal to 7.15
